biological target: LRH-1 (Homo sapiens); construct: The transfected plasmids included full-length LRH-1 in a pCI vector (5 ng/well); assay: Luciferase reporter (activation) assay in HeLa cells transfected with full-length LRH-1 and SHP-luc reporter; conditions: 24 hours treatment, interval in brackets in the cell
Sequence (O00482 whole entry): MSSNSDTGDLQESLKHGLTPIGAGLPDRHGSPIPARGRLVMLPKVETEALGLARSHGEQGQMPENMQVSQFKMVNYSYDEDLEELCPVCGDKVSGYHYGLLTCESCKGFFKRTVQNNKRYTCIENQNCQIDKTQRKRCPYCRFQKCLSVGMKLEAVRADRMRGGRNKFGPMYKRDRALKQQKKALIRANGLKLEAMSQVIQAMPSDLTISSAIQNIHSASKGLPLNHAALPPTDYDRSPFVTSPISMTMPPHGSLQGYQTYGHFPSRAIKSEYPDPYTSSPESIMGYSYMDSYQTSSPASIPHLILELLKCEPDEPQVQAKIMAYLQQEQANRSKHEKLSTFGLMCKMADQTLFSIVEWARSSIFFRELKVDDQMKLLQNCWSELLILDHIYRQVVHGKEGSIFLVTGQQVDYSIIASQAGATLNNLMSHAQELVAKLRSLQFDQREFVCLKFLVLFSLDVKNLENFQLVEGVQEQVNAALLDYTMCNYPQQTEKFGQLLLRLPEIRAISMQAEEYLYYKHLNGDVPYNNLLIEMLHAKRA
metric: pEC50
Please note pEC50 is a logarithmic value: minus log10 of concentration in mol/L. Answer with that number alone.

Problem: Entry C=C(c1ccccc1)C12CCC(NS(N)(=O)=O)C1CC(CCOCCCOCCC(=O)O)=C2c1ccccc1 (stereo not shown) [Compound 6N-10CA-DE] needs its pEC50 filled in; supply it.
Solution: 5.92

Problem: Entry C=C(c1ccccc1)C12CCC(O)C1CC(CCOCCCOCCC(=O)O)=C2c1ccccc1 (stereo not shown) [Compound 10CA-DE] needs its pEC50 filled in; supply it.
Solution: 5.49

Problem: Entry C=C(c1ccccc1)C12CCC(NS(N)(=O)=O)C1CC(CCCCOCCCCC(=O)O)=C2c1ccccc1 (stereo not shown) [Compound 6N-10CA-ME] needs its pEC50 filled in; supply it.
Solution: 7.30

Problem: Entry C=C(c1ccccc1)C12CCC(O)C1CC(CCCCOCCCCC(=O)O)=C2c1ccccc1 (stereo not shown) [Compound 10CA-ME] needs its pEC50 filled in; supply it.
Solution: 6.06

----------
target: LRH-1 LBD (Homo sapiens, UniProt O00482); construct: LRH-1 LBD (residues 299-541) in the pMSC7 vector; His tag; test: FP competition (binding) assay; settings: interval in brackets in the cell
Sequence (O00482 299-541): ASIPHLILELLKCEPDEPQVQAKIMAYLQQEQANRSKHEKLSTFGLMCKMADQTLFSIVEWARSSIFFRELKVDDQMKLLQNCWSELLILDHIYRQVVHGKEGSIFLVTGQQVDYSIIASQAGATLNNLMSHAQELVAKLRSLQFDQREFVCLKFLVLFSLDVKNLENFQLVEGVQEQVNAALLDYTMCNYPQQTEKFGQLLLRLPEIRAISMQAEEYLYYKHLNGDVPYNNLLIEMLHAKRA
metric: Ki (nM)
Numeric answer only, unit nM assumed.

Problem: Entry C=C(c1ccccc1)C12CCC(O)C1CC(CCOCCCOCCC(=O)O)=C2c1ccccc1 (stereo not shown) [Compound 10CA-DE] needs its Ki filled in; supply it.
Solution: 10000

Problem: Entry C=C(c1ccccc1)C12CCC(NS(N)(=O)=O)C1CC(CCOCCCOCCC(=O)O)=C2c1ccccc1 (stereo not shown) [Compound 6N-10CA-DE] needs its Ki filled in; supply it.
Solution: 480

Problem: Entry C=C(c1ccccc1)C12CCC(NS(N)(=O)=O)C1CC(CCCCOCCCCC(=O)O)=C2c1ccccc1 (stereo not shown) [Compound 6N-10CA-ME] needs its Ki filled in; supply it.
Solution: 12

Problem: Entry C=C(c1ccccc1)C12CCC(O)C1CC(CCCCOCCCCC(=O)O)=C2c1ccccc1 (stereo not shown) [Compound 10CA-ME] needs its Ki filled in; supply it.
Solution: 110

----------
Biological target: LRH-1 LBD (Homo sapiens, UniProt O00482)
Construct: LRH-1 LBD (residues 299-541) in the pMSC7 vector; His tag; made in house; host or cells: BL21 (DE3) pLysS E. coli
Assay: Thermal stability assay (Tycho NT.6) of LRH-1 LBD complexed with ligands
Type: binding
Settings: LRH-1 LBD with 5-fold molar excess of ligand; value in parentheses
Protocol: Thermal shift was also assessed for each of the compounds to determine the protein thermal stability. Thermal stability of the LRH-1 LBD complexed with ligands was determined using a Tycho NT.6 Nanotemper. […] Tryptophan/tyrosine fluorescence was monitored at wavelengths of 330 nm and 350 nm over a 30° C./min gradient (35° C.-95° C.). The inflection point was determined with Tycho NT.6 software. […]
metric: Inflection Point (Thermal Stability), shift in parentheses

Problem: # return Inflection Point (Thermal Stability), shift in parentheses for C=C(c1ccccc1)C12CCC(NS(N)(=O)=O)C1CC(CCCCOCCCCC(=O)O)=C2c1ccccc1 (stereo not shown) [Compound 6N-10CA-ME] , test system: LRH-1 LBD (Homo sapiens, UniProt O00482)
Solution: +9.9 °C

Problem: # return Inflection Point (Thermal Stability), shift in parentheses for C=C(c1ccccc1)C12CCC(O)C1CC(CCCCOCCCCC(=O)O)=C2c1ccccc1 (stereo not shown) [Compound 10CA-ME] , test system: LRH-1 LBD (Homo sapiens, UniProt O00482)
Solution: +3.9 °C

Problem: # return Inflection Point (Thermal Stability), shift in parentheses for C=C(c1ccccc1)C12CCC(NS(N)(=O)=O)C1CC(CCOCCCOCCC(=O)O)=C2c1ccccc1 (stereo not shown) [Compound 6N-10CA-DE] , test system: LRH-1 LBD (Homo sapiens, UniProt O00482)
Solution: +5.9 °C

Problem: # return Inflection Point (Thermal Stability), shift in parentheses for C=C(c1ccccc1)C12CCC(O)C1CC(CCOCCCOCCC(=O)O)=C2c1ccccc1 (stereo not shown) [Compound 10CA-DE] , test system: LRH-1 LBD (Homo sapiens, UniProt O00482)
Solution: +1.9 °C

----------
Assignment: determine reported Inflection Point (Thermal Stability) for the given compounds.
target: LRH-1 LBD (Homo sapiens, UniProt O00482); construct: LRH-1 LBD (residues 299-541) in the pMSC7 vector; His tag; made in house; host or cells: BL21 (DE3) pLysS E. coli; assay: Thermal stability assay (Tycho NT.6) of LRH-1 LBD complexed with ligands; type: binding; details: LRH-1 LBD with 5-fold molar excess of ligand
Numeric answer only, unit °C assumed.

Problem: # return Inflection Point (Thermal Stability) for C=C(c1ccccc1)C12CCC(NS(N)(=O)=O)C1CC(CCCCOCCCCC(=O)O)=C2c1ccccc1 (stereo not shown) [Compound 6N-10CA-ME] , test system: LRH-1 LBD (Homo sapiens, UniProt O00482)
Solution: 65

Problem: # return Inflection Point (Thermal Stability) for C=C(c1ccccc1)C12CCC(O)C1CC(CCOCCCOCCC(=O)O)=C2c1ccccc1 (stereo not shown) [Compound 10CA-DE] , test system: LRH-1 LBD (Homo sapiens, UniProt O00482)
Solution: 57

Problem: # return Inflection Point (Thermal Stability) for C=C(c1ccccc1)C12CCC(NS(N)(=O)=O)C1CC(CCOCCCOCCC(=O)O)=C2c1ccccc1 (stereo not shown) [Compound 6N-10CA-DE] , test system: LRH-1 LBD (Homo sapiens, UniProt O00482)
Solution: 61

Problem: # return Inflection Point (Thermal Stability) for C=C(c1ccccc1)C12CCC(O)C1CC(CCCCOCCCCC(=O)O)=C2c1ccccc1 (stereo not shown) [Compound 10CA-ME] , test system: LRH-1 LBD (Homo sapiens, UniProt O00482)
Solution: 59
